# Lookup of reported IC50 keyed by entry
tested on: A 172; experiment: Inhibition of nitric oxide formation in human A172 cells; format: functional, cell-based

>>> assay_result("c1cn(-c2ccc(O[C@H]3CCCN(Cc4ccc5c(c4)OCO5)C3)cc2)cn1")
"9 nM"
>>> assay_result("c1cn(-c2ccc(O[C@H]3CCN(Cc4ccc5c(c4)OCO5)C3)cc2)cn1")
"1600 nM"
>>> assay_result("c1cn(-c2ccc(OCCNCc3ccc4c(c3)OCO4)cc2)cn1")
"240 nM"
>>> assay_result("O=C(O)CN(CCOc1ccc(-n2ccnc2)cc1)Cc1ccc2c(c1)OCO2")
"> 10000 nM"
>>> assay_result("c1cn(-c2ccc(OC[C@H]3CCCN3Cc3ccc4c(c3)OCO4)cc2)cn1")
"250 nM"
>>> assay_result("c1cn(-c2ccc(OCC3CCCCN3Cc3ccc4c(c3)OCO4)cc2)cn1 (centres undefined)")
"100 nM"

Ask: Report IC50, nothing else, for this compound: c1cn(-c2ccc(OC3CCCN(Cc4ccc5c(c4)OCO5)C3)cc2)cn1 (centres undefined)
Result: 57 nM

Ask: Report IC50, nothing else, for this compound: O=C(CN(CCOc1ccc(-n2ccnc2)cc1)Cc1ccc2c(c1)OCO2)NCc1ccc(C(F)(F)F)cc1
Result: 1800 nM

Ask: Report IC50, nothing else, for this compound: CC1CCCCN1CCCNC(=O)CN(CCOc1ccc(-n2ccnc2)cc1)Cc1ccc2c(c1)OCO2 (centres undefined)
Result: 1600 nM
